Measured values drawn from paper PMC9916616 for this set.

System: Hs27 cells
Conditions: concentration reducing Hs27 viability by 30%, MTT, 24 h
Catalogue of CC30 in Hs27 Cells readings, one per entry.

NC(=S)N/N=C/c1ccc(OC(=O)CC2SC(=O)NC2=O)cc1 (centres unmarked) [compound 7]; >880.97 µg/mL
O=C(/C=C1\SC(=O)NC1=O)Oc1cccc(/C=N/NC(=O)c2ccncc2)c1 [compound 1]; 128.27 µg/mL
O=C(CC1SC(=O)NC1=O)Oc1ccc(/C=N/NC(=O)c2ccncc2)cc1Br (centres unmarked) [compound 6]; >1193.22 µg/mL

Prompt: Please report CC30 in Hs27 Cells for the following compound: CCc1nc(N)nc(N)c1-c1ccc(Cl)cc1 [PYR, pyrimethamine, reference compound]
Response: 49.62 µg/mL

Prompt: Please report CC30 in Hs27 Cells for the following compound: NC(=S)N/N=C/c1ccc(OC(=O)CC2SC(=O)NC2=O)c(Cl)c1 (centres unmarked) [compound 8]
Response: >967.09 µg/mL

Prompt: Please report CC30 in Hs27 Cells for the following compound: O=C1C(O)=C([C@H]2CC[C@H](c3ccc(Cl)cc3)CC2)C(=O)c2ccccc21 [ATO, atovaquone, reference compound]
Response: 54.26 µg/mL

Prompt: Please report CC30 in Hs27 Cells for the following compound: O=C(CC1SC(=O)NC1=O)Oc1ccc(/C=N/NC(=O)c2ccncc2)cc1Cl (centres unmarked) [compound 5]
Response: >1082.10 µg/mL

Prompt: Please report CC30 in Hs27 Cells for the following compound: NC(=S)N/N=C/c1ccc(OC(=O)/C=C2\SC(=O)NC2=O)cc1 [compound 10]
Response: 312.27 µg/mL

Prompt: Please report CC30 in Hs27 Cells for the following compound: NC(=S)N/N=C/c1ccc(OC(=O)/C=C2\SC(=O)NC2=O)c(Cl)c1 [compound 12]
Response: >962.05 µg/mL

* * *

Catalogue of Papp at 180 min, 20 µg/mL readings, one per entry.
Test: in vitro
Assay type: in vitro ADME
Conditions: PAMPA, pH 7.4
The reply should be a number in ×10⁻⁶ cm/s, with the unit left off.

Solved cases below.
NC(=S)N/N=C/c1ccc(OC(=O)CC2SC(=O)NC2=O)cc1 (stereo not shown) [compound 7]; 23.1
O=C(CC1SC(=O)NC1=O)Oc1ccc(/C=N/NC(=O)c2ccncc2)cc1 (stereo not shown) [compound 2]; 12.4
NC(=S)N/N=C/c1ccc(OC(=O)CC2SC(=O)NC2=O)c(Cl)c1 (stereo not shown) [compound 8]; 26.1

Consider the additional compound presented here.
Prompt: Please report Papp at 180 min, 20 µg/mL for the following compound: NC(=S)N/N=C/c1ccc(OC(=O)/C=C2\SC(=O)NC2=O)cc1 [compound 10]
Response: 24.4

* * *

System: Toxoplasma gondii RH-GFP tachyzoites
Test: In vitro anti-Tg assay (RH-GFP tachyzoite proliferation in Hs27 cells)
Assay type: cell-based
Conditions: CC30 in Hs27 / IC50Tg
Catalogue of SI (selectivity index, CC30/IC50Tg) readings, one per entry.

Solved cases below.
COc1cc(Cc2cnc(N)nc2N)cc(OC)c1OC [TRI, trimethoprim, reference compound]; 5.53
NC(=S)N/N=C/c1ccc(OC(=O)CC2SC(=O)NC2=O)cc1 (stereo not shown); >148.28
NC(=S)N/N=C/c1ccc(OC(=O)CC2SC(=O)NC2=O)c(Br)c1 (stereo not shown); >87.75

Prompt: Please report SI (selectivity index, CC30/IC50Tg) for the following compound: O=C(CC1SC(=O)NC1=O)Oc1ccc(/C=N/NC(=O)c2ccncc2)cc1Cl (stereo not shown)
Response: >44.48
